# IC50 per entry
# Test system: Trypanosoma brucei brucei
# assay_overview: Inhibitory activity against Trypanosoma brucei
# Format: functional, organism-based

Below, each entry is followed by its recorded IC50 result.
• Nc1nc(N)nc(NCCCNCCCCCCCCCCCCNCCCNc2nc(N)nc(N)n2)n1 = > 100 µM
• Nc1nc(N)nc(NCCCNCCCCCCCCCNCCCNc2nc(N)nc(N)n2)n1 = > 100 µM

Record CC(CNCCCNc1nc(N)nc(N)n1)NCCCNc1nc(N)nc(N)n1 (stereo not drawn) / Trypanosoma brucei brucei, IC50 recorded as > 100 µM
